- SUBJECT OF TEST: Aβ42 fibrils (Homo sapiens, UniProt P05067)
- Construct: monomeric amyloid-b1-42
- Sequence (P05067 672-713 limits assumed): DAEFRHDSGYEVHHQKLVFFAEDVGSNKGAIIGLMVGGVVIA
- EXPERIMENTAL PROTOCOL: Fluorescence titration with Aβ42 fibrils
- PARTICULARS: monodisperse BTA dimers; 0.5 μM Aβ42; PBS 1× pH 7.4, 298 K; errors at 95% confidence limit; read-out: Dissociation constant (Kd) for binding to Aβ42 fibrils
pKd: −log10 of the molar value.
PROPERTY: pKd

I: CN(C)c1ccc(-c2nc3ccc(OCCOCCOCCOCCOCCOCCOCCOCCOCCOCCOCCOCCOCCOCCOCCOc4ccc5nc(-c6ccc(N(C)C)cc6)sc5c4)cc3s2)cc1
II: CN(C)c1ccc(-c2nc3ccc(OCCOCCOCCOCCOCCOCCOc4ccc5nc(-c6ccc(N(C)C)cc6)sc5c4)cc3s2)cc1
III: CN(C)c1ccc(-c2nc3ccc(OCCOCCOCCOCCOCCOCCOCCOCCOCCOCCOCCOCCOCCOCCOCCOCCOCCOCCOCCOCCOCCOc4ccc5nc(-c6ccc(N(C)C)cc6)sc5c4)cc3s2)cc1
IV: CN(C)c1ccc(-c2nc3ccc(OCCOCCOCCOCCOCCOCCOCCOCCOCCOc4ccc5nc(-c6ccc(N(C)C)cc6)sc5c4)cc3s2)cc1
Sort (4 molecules) by pKd: min first. Output the labels ranked as instructed.
II, III, IV, I
